# subject-of-test: Induced myeloid leukemia cell differentiation protein Mcl-1 (Homo sapiens)
# method-summary: Mcl-1/Noxa binding inhibitor potency, dose response, biochemical, TR-FRET (AID 1417)
# details: Mcl-1/Noxa peptide interaction, cell-free TR-FRET (terbium/rhodamine), 2 h; measured here: absolute IC50
Binary call on IC50 with cut-off 2 µM: strictly below means Yes, and equality or higher means No.

# example entries with known answers
{"columns": ["compound", "label-value"],
 "data": [
  ["Oc1ccc(/C=N/n2cc(-c3ccccc3)[nH]c2=S)cc1", "Yes"],
  ["CCc1c(C)[nH]c2ccc(OC)cc2c1=S", "Yes"],
  ["COc1cc(/C=N/NC(=O)C(Cc2c[nH]c3ccccc23)NC(=O)OCc2ccccc2)cc([N+](=O)[O-])c1O (stereo not given)", "No"],
  ["COc1ccc(N=C2NC(=O)/C(=C\\C=C\\c3ccco3)S2)cc1", "Yes"],
  ["O=[N+]([O-])C(=c1ccc2c(c1)N1C3=C(CCCC3)CC3CCCCC31N=2)[N+](=O)[O-] (stereo not given)", "Yes"],
  ["CNc1ccc(Br)cc(C(=O)/C=C/c2ccc(OC)cc2OC)c1=O", "No"],
  ["COC1=C/C(=C/c2c(N)n3nc(-c4ccc(C)cc4)sc3nc2=O)C=CC1=O", "No"],
  ["O=C(CSc1ccsc1[N+](=O)[O-])Nc1cc(F)ccc1F", "No"],
  ["C1=CC2c3ccccc3NC(c3ccncc3)C2C1 (stereo not given)", "Yes"]
]}

Now for another entry.
API: query returns whether the compound falls strictly under 2 µM in IC50. Query: O=C1C=CC(=O)C(C2=C3C(=O)N(CCc4ccccc4)CC(=O)N3CCC2)=C1
No
